tested on: L1210 leukemia ip in BDF1 mice, survival T/C; test: NCI In Vivo Anticancer Drug Screen. Data for tumor model L1210 Leukemia (intraperitoneal) in B6D2F1 (BDF1) mice; details: endpoint: mean survival time; dose: 100.0 mg/kg/injection; schedule: Q01DX009 (ip); vehicle: Klucel (hydroxypropylcellulose) (HPC)
Inconclusive results and toxic doses are left out. Cut-off read from the data, not from the text of the source: active = T/C of 150% or more; inactive = T/C below 125%.
Outcome codes: active, inactive

# MOLECULE, CAT
measured = [
    ("O=C1CNC(c2ccccc2)c2cc(Cl)ccc2N1 (stereo not given)", "inactive"),
    ("Cc1cc(C)c(-c2c(C)cc(C)cc2CBr)c(CBr)c1", "inactive"),
    ("Cc1ccc(NS(=O)(=O)c2ccc(Cl)cc2)cc1Cl", "inactive"),
    ("CC(=O)OC1(C(C)=O)CCC2C3CC(C)(O)C4=CC(=O)CCC4(C)C3CCC21C (stereo not given)", "inactive"),
    ("Cc1cc2nc(CO)[nH]c2cc1C", "inactive"),
    ("COc1ccc(C=O)cc1OCCCCCOc1cc(C=O)ccc1OC", "inactive"),
    ("NC(=S)Nc1ccc(Cc2ccc(NC(N)=S)cc2)cc1", "inactive"),
    ("Cc1ccc([N+](=O)[O-])cc1NC(=O)Nc1ccccc1C(F)(F)F", "inactive"),
    ("COc1ccc([N+](=O)[O-])cc1NC(=O)Nc1ccc(CCO)cc1", "inactive"),
    ("COC(=O)c1cc(NC(=O)Nc2ccc(Cl)cc2[N+](=O)[O-])cc(C(=O)OC)c1", "inactive"),
    ("O=[N+]([O-])c1cccc(N=Nc2ccc(O)cc2)c1", "inactive"),
    ("CCOC(=O)c1ccc(OC(=O)Nc2ccc(Cl)c([N+](=O)[O-])c2)cc1", "inactive"),
    ("NC(Cc1ccc(O)cc1)C(=O)N/N=C/c1ccc(N(CCCl)CCCl)cc1 (stereo not given)", "inactive"),
    ("CSc1nccnc1C", "inactive"),
    ("O=NN(CCCl)C(=O)NC1c2cc(Cl)ccc2-c2c(Cl)cc(Cl)cc21 (stereo not given)", "active"),
]

====

test system: L1210 leukemia ip in BDF1 mice, survival T/C; test: NCI In Vivo Anticancer Drug Screen. Data for tumor model L1210 Leukemia (intraperitoneal) in B6D2F1 (BDF1) mice; conditions: endpoint: mean survival time; dose: 400.0 mg/kg/injection; schedule: Q01DX001 (ip); vehicle: Klucel (hydroxypropylcellulose) (HPC); higher = longer survival
Inconclusive results and toxic doses are left out.
Listed here: items and their measured T/C.

# MOLECULE, T/C
measured = [
    ("O=C(OCC(OC(=O)c1ccccc1)C1OCOC2COCOC21)c1ccccc1 (stereo not drawn)", "97 % of control"),
    ("CC(C)(C)C1=CC(=O)C(Br)=C(N2C3C4CCC(C4)C32)C1=O (stereo not drawn)", "94 % of control"),
    ("C/C(=N/N(C)C)c1ccc(C#N)cc1", "105 % of control"),
    ("CCOC(=O)c1cnc(C(Cl)(Cl)Cl)[nH]c1=O", "92 % of control"),
    ("O=C1c2ccccc2C(=O)N1c1ccc(Br)cc1", "104 % of control"),
    ("COC(=O)Nc1ccccc1", "101 % of control"),
    ("O=C1OCCN1C(=O)c1ccc(Cl)c(Cl)c1", "96 % of control"),
    ("COCC(=O)O", "100 % of control"),
]

====

Item-by-item account of T/C
tested on: L1210 leukemia ip in BDF1 mice, survival T/C; assay: NCI In Vivo Anticancer Drug Screen. Data for tumor model L1210 Leukemia (intraperitoneal) in B6D2F1 (BDF1) mice; conditions: endpoint: mean survival time; dose: 400.0 mg/kg/injection; schedule: Q04DX003 (ip); vehicle: Klucel (hydroxypropylcellulose) (HPC); higher = longer survival
Inconclusive results and toxic doses are left out. Square brackets hold non-standard residues; d marks the D form. Peptide text beside a SMILES is read from it. * marks the point of attachment. ξ: configuration not given here. Cbz = O=C(OCc1ccccc1)*; OBn = c1ccc(CO*)cc1; ξP = O=C(O)C1CCCN1
RECORDED_ENDPOINT: T/C

# MOLECULE, ASSAY_SYSTEM, VAL
measured = [
    ("O=C(CC(c1ccccc1)N1CCN(c2ccccc2)CC1)c1ccccc1 (centres undefined)", "L1210 leukemia ip in BDF1 mice, survival T/C", "94 % of control"),
    ("CCOc1ccc(NC(=O)Nc2cccc(Cl)c2)cc1", "L1210 leukemia ip in BDF1 mice, survival T/C", "100 % of control"),
    ("O=C(CNC(=O)OCc1ccccc1)NCC(=O)N1CCCC1C(=O)OCc1ccccc1 (stereo not drawn) (Cbz-Gly-Gly-[ξP]-OBn)", "L1210 leukemia ip in BDF1 mice, survival T/C", "100 % of control"),
    ("Clc1ccc2c(c1)C(=P(c1ccccc1)(c1ccccc1)c1ccccc1)c1cc(Cl)cc(Cl)c1-2", "L1210 leukemia ip in BDF1 mice, survival T/C", "93 % of control"),
    ("NC(=O)C1CCCC12NC(=O)NC2=O (centres undefined)", "L1210 leukemia ip in BDF1 mice, survival T/C", "97 % of control"),
    ("CCCCCCCCCCCCCCCC(=O)Nc1ccc(O)cc1", "L1210 leukemia ip in BDF1 mice, survival T/C", "95 % of control"),
    ("CC1=CC(=O)CC(=O)O1", "L1210 leukemia ip in BDF1 mice, survival T/C", "95 % of control"),
    ("Cc1[nH]c(=S)[nH]c(=O)c1CCC(C)C", "L1210 leukemia ip in BDF1 mice, survival T/C", "106 % of control"),
    ("Cc1ncc(C(C)(O)c2ccc(Cl)cc2)n1Cc1ccccc1 (centres undefined)", "L1210 leukemia ip in BDF1 mice, survival T/C", "92 % of control"),
    ("Cc1c(Cl)cccc1NC(=O)c1ccc(Cl)c(Cl)c1", "L1210 leukemia ip in BDF1 mice, survival T/C", "95 % of control"),
    ("COc1ccc(OC)c(NC(=S)NC(=O)c2cccc([N+](=O)[O-])c2)c1", "L1210 leukemia ip in BDF1 mice, survival T/C", "97 % of control"),
    ("Cc1ccc(/C(=C\\c2ccccc2)C(=O)c2ccccc2)cc1", "L1210 leukemia ip in BDF1 mice, survival T/C", "101 % of control"),
    ("O=[N+]([O-])c1cc([N+](=O)[O-])c2nn(-c3ccccc3)[n+]([O-])c2c1", "L1210 leukemia ip in BDF1 mice, survival T/C", "98 % of control"),
    ("Cc1cc(Cl)ccc1NC(=O)c1ccc(Cl)cc1Cl", "L1210 leukemia ip in BDF1 mice, survival T/C", "88 % of control"),
    ("O=[N+]([O-])c1cccc(/C=C/S(=O)(=O)c2ccccc2)c1", "L1210 leukemia ip in BDF1 mice, survival T/C", "100 % of control"),
    ("O=C1c2cccc(NCCO)c2C(=O)c2c(NCCO)cccc21", "L1210 leukemia ip in BDF1 mice, survival T/C", "94 % of control"),
    ("OCCCNc1nc2ccc(Cl)cc2c2ccccc12", "L1210 leukemia ip in BDF1 mice, survival T/C", "108 % of control"),
    ("NC(C(=O)O)c1cccc(Cl)c1 (centres undefined)", "L1210 leukemia ip in BDF1 mice, survival T/C", "100 % of control"),
    ("S=C(S)Nc1cccc2ccccc12", "L1210 leukemia ip in BDF1 mice, survival T/C", "91 % of control"),
]

====

Tested on: L1210 leukemia ip in BDF1 mice, survival T/C
Test: NCI In Vivo Anticancer Drug Screen. Data for tumor model L1210 Leukemia (intraperitoneal) in B6D2F1 (BDF1) mice
Conditions: endpoint: mean survival time; dose: 100.0 mg/kg/injection; schedule: Q01DX009 (ip); vehicle: Klucel (hydroxypropylcellulose) (HPC); higher = longer survival
Procedure: The antitumor activity of compounds was measured in mice bearing transplantable tumors. Survival or tumor size were measured and the results are expressed as the measurement made in the treated group (T) divided by the measurement made in the vehicle treated control group (C). The tumor model used in this assay is L1210 Leukemia (intraperitoneal) in B6D2F1 (BDF1) mice
Inconclusive results and toxic doses are left out.
# T/C annotations

# MOLECULE, T/C
measured = [
    ("CCCCCCCCCCCCCCCCCCNC(=O)N(CC)c1ccccc1", "101 % of control"),
    ("O=C1c2ccccc2C(=O)N1CNc1ccccc1", "103 % of control"),
    ("O=C(c1ccccc1)c1ccc(O)cc1", "93 % of control"),
    ("Cc1c(C(=O)CCl)c(=O)n(-c2ccccc2)n1C", "100 % of control"),
    ("CCCCCCCCOC(=O)CCC(N)C(=O)O (stereo not drawn)", "93 % of control"),
    ("C/C(N=Nc1ccccc1)=N\\Nc1cccc(C(F)(F)F)c1", "102 % of control"),
    ("O=C(c1ccc(Cl)cc1)c1cccc[n+]1Cc1ccccc1", "119 % of control"),
    ("N#Cc1cccc(OCCCCOc2ccccc2)c1", "89 % of control"),
    ("Cc1cc(S(=O)(=O)F)ccc1O", "106 % of control"),
    ("CCOC(=O)/C(C)=C\\C=C(\\C)CCC=C(C)C", "104 % of control"),
    ("COC(=O)N(C1CCCCC1)C1CCCCC1", "97 % of control"),
    ("CNC(=O)Nc1nnc(C)s1", "98 % of control"),
    ("O=C(O)CNC(=O)CCl", "90 % of control"),
]
